# target: matriptase (Homo sapiens, UniProt Q9Y5Y6)
# Construct: made in house
# Sequence (Q9Y5Y6 whole entry): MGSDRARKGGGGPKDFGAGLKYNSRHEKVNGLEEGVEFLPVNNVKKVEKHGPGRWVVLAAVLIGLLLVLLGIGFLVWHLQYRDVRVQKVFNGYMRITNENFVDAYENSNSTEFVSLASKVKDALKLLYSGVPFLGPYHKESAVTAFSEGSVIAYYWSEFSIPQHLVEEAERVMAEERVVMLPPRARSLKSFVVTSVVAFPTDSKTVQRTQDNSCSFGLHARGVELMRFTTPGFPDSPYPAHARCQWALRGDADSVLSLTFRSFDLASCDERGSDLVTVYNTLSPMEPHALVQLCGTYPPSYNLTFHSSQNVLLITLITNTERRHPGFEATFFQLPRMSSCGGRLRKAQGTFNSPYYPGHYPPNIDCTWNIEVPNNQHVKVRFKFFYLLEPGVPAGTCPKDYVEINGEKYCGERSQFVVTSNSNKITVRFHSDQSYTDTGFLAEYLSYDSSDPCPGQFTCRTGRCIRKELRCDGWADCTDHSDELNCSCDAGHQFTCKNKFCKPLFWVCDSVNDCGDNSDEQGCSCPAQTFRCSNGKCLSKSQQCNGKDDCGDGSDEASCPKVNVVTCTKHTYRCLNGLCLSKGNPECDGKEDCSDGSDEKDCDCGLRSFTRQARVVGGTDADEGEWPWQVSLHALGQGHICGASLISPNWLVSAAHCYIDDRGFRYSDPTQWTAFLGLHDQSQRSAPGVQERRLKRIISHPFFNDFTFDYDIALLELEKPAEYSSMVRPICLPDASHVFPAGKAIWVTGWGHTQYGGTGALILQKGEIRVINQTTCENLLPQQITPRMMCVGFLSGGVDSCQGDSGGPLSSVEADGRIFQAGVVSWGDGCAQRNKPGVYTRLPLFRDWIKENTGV
# test: In vitro inhibition assay, matriptase, Boc-QAR-AMC
# Format: biochemical
# test settings: Morrison Ki equation, tight-binding
measurement type: Ki (nM)
Numbers only, in nM.

Lookup: # input molecule: N=C(N)NCCC[C@H](NC(=O)[C@H](Cc1ccccc1)NC(=O)CCCC(N)=O)C(=O)c1nc2ccccc2s1 ; wanted: its Ki
Found: 24.2

Continuing:
Lookup: Please give the measured Ki for this molecule: N=C(N)NCCCCC(=O)N[C@@H](CCC(N)=O)C(=O)N[C@@H](CCc1ccccc1)C(=O)N[C@@H](CCCNC(=N)N)C(=O)c1nc2ccccc2s1
Found: 0.28

###

# test: in vitro
# test settings: male, Sprague-Dawley, rat, pooled rat plasma (K2EDTA), Mean half-life, Plasma, final conc. 0.2 mM, 37 °C
measurement type: half-life at 0.2 mM (h)
Give bare numbers, in h.

Lookup: Using the record for N=C(N)NCCC[C@H](NC(=O)[C@H](CCc1ccccc1)NC(=O)[C@H](CCC(N)=O)NC(=O)[C@@H](N)CCCNC(=N)N)C(=O)c1nc2ccccc2s1 , report its half-life at 0.2 mM.
Found: 0.15

Lookup: What value of half-life at 0.2 mM has been reported for the following compound? N=C(N)NCCCCC(=O)N[C@@H](CCC(N)=O)C(=O)N[C@@H](CCc1ccccc1)C(=O)N[C@@H](CCCNC(=N)N)C(=O)c1nc2ccccc2s1
Found: 40.8

Now look at this entry.
Lookup: What value of measured half-life at 0.2 mM is listed for N=C(N)NCCCCC(=O)N[C@@H](CCC(N)=O)C(=O)N[C@@H](Cc1ccccc1)C(=O)N[C@@H](CCCNC(=N)N)C(=O)c1nc2ccccc2s1 ?
Found: 79.2

###

Give pKi for every item shown.
# target: TMPRSS13 (Homo sapiens, UniProt Q9BYE2, K566A/R563A/R565A)
# Construct: Shedding of the TMPRSS13 catalytic domain was detected for both constructs in the cell media
# Sequence (Q9BYE2 with tags, fused parts or gaps isoform Q9BYE2-6 limits assumed): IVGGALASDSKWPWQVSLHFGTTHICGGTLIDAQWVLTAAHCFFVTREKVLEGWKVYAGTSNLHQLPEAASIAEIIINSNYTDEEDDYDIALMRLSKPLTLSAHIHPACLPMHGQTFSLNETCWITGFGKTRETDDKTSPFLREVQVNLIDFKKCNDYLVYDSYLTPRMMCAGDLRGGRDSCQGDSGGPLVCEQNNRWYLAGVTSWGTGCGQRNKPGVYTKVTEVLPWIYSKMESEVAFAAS
# test: In vitro inhibition assay, recombinant TMPRSS13-AFAAS-6His, Boc-RVRR-AMC
# test settings: dose-response curve, Cheng-Prusoff equation
Numbers only, as −log10 of the molar value.

Look over these answered cases.
Lookup: # get_value(readout='pKi', item= N=C(N)NCCC[C@H](NC(=O)[C@@H]1CCCN1C(=O)[C@H](CCC(N)=O)NC(=O)[C@@H](N)CCCNC(=N)N)C(=O)c1nc2ccccc2s1 [Compound N-0107, RQPR-kbt] )
Found: 7.83

Lookup: Entry C[C@H](NC(=O)[C@H](CCC(N)=O)NC(=O)[C@@H](N)CCCNC(=N)N)C(=O)N[C@@H](CCCNC(=N)N)C(=O)c1nc2ccccc2s1 [Compound N-0100] has what pKi?
Found: 7.50

Lookup: So what does the record say about pKi for N=C(N)NCCCCC(=O)N[C@@H](CCC(N)=O)C(=O)N[C@@H](Cc1ccccc1)C(=O)N[C@@H](CCCNC(=N)N)C(=O)c1nc2ccccc2s1 [Compound N-0130, (H)-RQFR-Kbt] ?
Found: 7.61

Field: pKi. Fill in for each record below.
1. N=C(N)NCCCCC(=O)N[C@@H](CCC(N)=O)C(=O)N[C@@H](CCc1ccccc1)C(=O)N[C@@H](CCCNC(=N)N)C(=O)c1nc2ccccc2s1 [Compound N-0430, (H)-RQhFR-Kbt]
2. N=C(N)NCCC[C@H](NC(=O)[C@H](CCc1ccccc1)NC(=O)[C@H](CCC(N)=O)NC(=O)[C@@H](N)CCCNC(=N)N)C(=O)c1nc2ccccc2s1 [Compound N-0159, RQhFR-kbt]
3. C[C@H](NC(=O)CCCCNC(=N)N)C(=O)N[C@@H](Cc1ccccc1)C(=O)N[C@@H](CCCNC(=N)N)C(=O)c1nc2ccccc2s1 [Compound N-0439, (H)-RAFR-Kbt]

Found:
[8.28, 7.99, 7.44]

For each entry beneath this line, provide reported pKi.
1. C[C@H](NC(=O)[C@H](CCC(N)=O)NC(=O)[C@H](CCCNC(=N)N)NC(=O)c1ccccc1)C(=O)N[C@@H](CCCNC(=N)N)C(=O)c1nc2ccccc2s1 [Compound N-0182, PhCO-RQAR-Kbt]
2. N=C(N)NCCCCC(=O)N[C@@H](CCC(N)=O)C(=O)N[C@@H](CC1CCCCC1)C(=O)N[C@@H](CCCNC(=N)N)C(=O)c1nc2ccccc2s1 [Compound N-0678]
3. C[C@H](NC(=O)[C@H](CCC(N)=O)NC(=O)[C@@H](N)CCCCNC(=N)N)C(=O)N[C@@H](CCCNC(=N)N)C(=O)c1nc2ccccc2s1 [Compound N-0179]
4. N=C(N)NCCC[C@H](NC(=O)[C@H](Cc1ccc(O)cc1)NC(=O)[C@H](CCC(N)=O)NC(=O)[C@@H](N)CCCNC(=N)N)C(=O)c1nc2ccccc2s1 [Compound N-0108]
5. N=C(N)NCCC[C@H](NC(=O)[C@H](Cc1ccccc1)NC(=O)CCCC(N)=O)C(=O)c1nc2ccccc2s1 [Compound N-0388, (H)-QFR-Kbt]

Found:
7.55
7.52
7.61
7.65
5.84

Lookup: Param item = N=C(N)NCCC[C@H](NC(=O)[C@H](Cc1ccc(F)cc1)NC(=O)[C@H](CCC(N)=O)NC(=O)[C@@H](N)CCCNC(=N)N)C(=O)c1nc2ccccc2s1 [Compound N-0136] ; retrieve measured pKi.
Found: 7.75

###

# target: WT TMPRSS13 (Homo sapiens, UniProt Q9BYE2)
# Construct: the full length TMPRSS13 (TMPRSS13-WT)
# test: In cellulo inhibitory activity in TMPRSS13-transfected Vero cells
# test settings: 24 h, Boc-RVRR-AMC, read-out: IC50 in cellulo TMPRSS13 inhibition
measurement type: IC50 (nM)
Numbers only, in nM.

Here are 2 compounds. What values of IC50 were reported for them?
1. N=C(N)NCCCCC(=O)N[C@@H](CCC(N)=O)C(=O)N[C@@H](CCc1ccccc1)C(=O)N[C@@H](CCCNC(=N)N)C(=O)c1nc2ccccc2s1
2. N=C(N)NCCCCC(=O)N[C@@H](CCC(N)=O)C(=O)N[C@@H](Cc1ccccc1)C(=O)N[C@@H](CCCNC(=N)N)C(=O)c1nc2ccccc2s1

Found:
[53, 192]

###

# target: furin (Homo sapiens, UniProt P09958)
# Construct: purchased R&D Systems
# Sequence (P09958 108-794): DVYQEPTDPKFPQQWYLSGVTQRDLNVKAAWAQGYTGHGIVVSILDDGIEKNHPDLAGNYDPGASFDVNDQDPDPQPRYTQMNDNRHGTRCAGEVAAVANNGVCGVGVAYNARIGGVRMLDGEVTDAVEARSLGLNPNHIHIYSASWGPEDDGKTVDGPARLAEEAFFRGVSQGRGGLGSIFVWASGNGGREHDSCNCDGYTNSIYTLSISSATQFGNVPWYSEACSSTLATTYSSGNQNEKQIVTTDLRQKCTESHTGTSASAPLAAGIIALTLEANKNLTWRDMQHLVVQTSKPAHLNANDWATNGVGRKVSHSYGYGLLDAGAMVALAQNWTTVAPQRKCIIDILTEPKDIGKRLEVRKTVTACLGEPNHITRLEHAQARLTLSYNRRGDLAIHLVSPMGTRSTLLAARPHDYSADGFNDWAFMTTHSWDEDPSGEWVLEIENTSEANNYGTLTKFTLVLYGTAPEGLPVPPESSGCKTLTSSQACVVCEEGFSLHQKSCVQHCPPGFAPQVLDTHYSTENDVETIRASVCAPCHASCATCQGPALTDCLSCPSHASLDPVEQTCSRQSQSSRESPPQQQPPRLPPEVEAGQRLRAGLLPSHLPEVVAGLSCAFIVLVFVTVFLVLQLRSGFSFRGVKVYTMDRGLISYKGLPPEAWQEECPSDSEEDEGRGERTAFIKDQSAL
# test: In vitro inhibition assay, furin, Boc-RVRR-AMC
# Assay type: biochemical
measurement type: Ki

Lookup: Returns the measured Ki for the input compound. Input: N=C(N)NCCC[C@H](NC(=O)[C@H](Cc1ccccc1)NC(=O)CCCC(N)=O)C(=O)c1nc2ccccc2s1 [Compound N-0388, (H)-QFR-Kbt]
Found: > 10 µM

Kindly review the next compound as well.
Lookup: Consider the compound shown here: N=C(N)NCCCCC(=O)N[C@@H](CCC(N)=O)C(=O)N[C@@H](CCc1ccccc1)C(=O)N[C@@H](CCCNC(=N)N)C(=O)c1nc2ccccc2s1 [Compound N-0430, (H)-RQhFR-Kbt] What is its recorded Ki?
Found: > 10 µM

###

Please provide measured half-life at 10 µM for the entries that follow.
# Tested on: human trypsin
# test: Proteolysis assay (stability) with human trypsin
# Type: in vitro ADME
# test settings: human trypsin (isolated protease), pH 7.4, compound final conc. 10 µM, 37 °C
Numbers only, in h.

Lookup: Form field: reported half-life at 10 µM of N=C(N)NCCC[C@H](NC(=O)[C@H](CCc1ccccc1)NC(=O)[C@H](CCC(N)=O)NC(=O)[C@@H](N)CCCNC(=N)N)C(=O)c1nc2ccccc2s1
Found: 38.4

Lookup: Using the record for N=C(N)NCCCCC(=O)N[C@@H](CCC(N)=O)C(=O)N[C@@H](Cc1ccccc1)C(=O)N[C@@H](CCCNC(=N)N)C(=O)c1nc2ccccc2s1 , report its half-life at 10 µM.
Found: 105

Next:
Lookup: State the recorded half-life at 10 µM for this entry: N=C(N)NCCCCC(=O)N[C@@H](CCC(N)=O)C(=O)N[C@@H](CCc1ccccc1)C(=O)N[C@@H](CCCNC(=N)N)C(=O)c1nc2ccccc2s1
Found: 29.5

###

# target: thrombin (Homo sapiens, UniProt P00734)
# Construct: purchased MilliporeSigma
# test: In vitro inhibition assay, thrombin, Boc-QAR-AMC
# Assay type: biochemical
pKi: −log10 of the molar value.
measurement type: pKi

Lookup: Any idea what pKi was measured for N=C(N)NCCCCC(=O)N[C@@H](CCC(N)=O)C(=O)N[C@@H](CCc1ccccc1)C(=O)N[C@@H](CCCNC(=N)N)C(=O)c1nc2ccccc2s1 ?
Found: < 5.00

Next:
Lookup: What does the data say about its pKi? Entry: N=C(N)NCCC[C@H](NC(=O)[C@H](Cc1ccccc1)NC(=O)CCCC(N)=O)C(=O)c1nc2ccccc2s1
Found: < 5.00
